TARGET OR SYSTEM: REFACTO® (recombinant factor VIII-like polypeptide consisting of amino acids 1-743 and 1638 through 2332 of human factor VIII) (human) (UniProt P00451)
Sequence (P00451 20-762, chain 1 of 2): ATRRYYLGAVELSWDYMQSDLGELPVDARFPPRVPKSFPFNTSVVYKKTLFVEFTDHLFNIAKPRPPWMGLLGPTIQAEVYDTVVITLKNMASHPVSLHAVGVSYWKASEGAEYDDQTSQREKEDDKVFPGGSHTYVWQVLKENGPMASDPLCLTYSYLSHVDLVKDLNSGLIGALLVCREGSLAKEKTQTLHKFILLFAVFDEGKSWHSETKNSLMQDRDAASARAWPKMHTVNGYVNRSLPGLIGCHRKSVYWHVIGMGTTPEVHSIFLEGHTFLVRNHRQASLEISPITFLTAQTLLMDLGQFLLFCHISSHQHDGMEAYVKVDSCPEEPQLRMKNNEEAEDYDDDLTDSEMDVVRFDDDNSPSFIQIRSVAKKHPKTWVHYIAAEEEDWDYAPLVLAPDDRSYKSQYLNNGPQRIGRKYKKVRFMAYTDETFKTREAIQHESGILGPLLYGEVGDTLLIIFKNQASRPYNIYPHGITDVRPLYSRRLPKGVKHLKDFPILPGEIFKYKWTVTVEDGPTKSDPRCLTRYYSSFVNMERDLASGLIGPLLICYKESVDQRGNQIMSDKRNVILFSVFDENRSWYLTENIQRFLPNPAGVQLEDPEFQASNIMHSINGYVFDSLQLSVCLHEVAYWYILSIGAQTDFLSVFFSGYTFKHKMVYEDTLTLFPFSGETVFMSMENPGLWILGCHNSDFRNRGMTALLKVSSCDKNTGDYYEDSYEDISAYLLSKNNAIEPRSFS
Sequence (P00451 1657-2351, chain 2 of 2): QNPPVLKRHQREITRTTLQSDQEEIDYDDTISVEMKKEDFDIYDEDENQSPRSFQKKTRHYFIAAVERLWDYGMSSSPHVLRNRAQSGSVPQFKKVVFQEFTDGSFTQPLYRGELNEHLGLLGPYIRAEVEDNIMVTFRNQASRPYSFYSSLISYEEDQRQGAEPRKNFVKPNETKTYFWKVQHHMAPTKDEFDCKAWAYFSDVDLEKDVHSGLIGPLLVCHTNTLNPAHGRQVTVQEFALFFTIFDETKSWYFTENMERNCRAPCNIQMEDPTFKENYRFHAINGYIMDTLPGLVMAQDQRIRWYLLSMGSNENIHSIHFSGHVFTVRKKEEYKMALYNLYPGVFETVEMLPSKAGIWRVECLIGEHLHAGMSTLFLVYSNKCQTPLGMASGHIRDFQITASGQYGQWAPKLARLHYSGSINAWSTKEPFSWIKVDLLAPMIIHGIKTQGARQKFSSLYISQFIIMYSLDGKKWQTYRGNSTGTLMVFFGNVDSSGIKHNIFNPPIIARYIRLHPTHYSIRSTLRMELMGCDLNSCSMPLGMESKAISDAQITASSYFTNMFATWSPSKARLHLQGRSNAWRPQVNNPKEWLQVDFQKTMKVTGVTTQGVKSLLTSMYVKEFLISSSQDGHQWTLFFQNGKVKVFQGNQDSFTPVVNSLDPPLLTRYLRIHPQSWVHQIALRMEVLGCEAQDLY
PROTOCOL NOTES: phage ELISA, phage isolate on factor VIII target, anti-M13-HRP
VALUE TYPE: ELISA signal (OD630)

binder="HGCGAWFRPCHA [TN8 isolate 01 (SEQ ID NO: 18)]" value_type="ELISA signal" measured=0.2
binder="PHCNWLFPCSL [TN7 isolate D03]" value_type="ELISA signal" measured=0.2
binder="FGCSWLFPCPF [TN7 isolate A08]" value_type="ELISA signal" measured=0.4
binder="HACGSWFRPCHA [TN8 isolate 07 (SEQ ID NO: 15)]" value_type="ELISA signal" measured=0.4
binder="HRCGSWLHPCLA [TN8 isolate 11/G10 (SEQ ID NO: 21)]" value_type="ELISA signal" measured=0.3
binder="HSCGSWLFPCFA [TN7 isolate A06]" value_type="ELISA signal" measured=0.5
binder="HPCGSWLRPCLH [TN8 isolate 10 (SEQ ID NO: 10)]" value_type="ELISA signal" measured=1
binder="FCWVFPFQHCA [TN9 isolate 09 (SEQ ID NO: 29)]" value_type="ELISA signal" measured=1.1
